Biological target: cAMP and cAMP-inhibited cGMP 3',5'-cyclic phosphodiesterase 10A (Homo sapiens)
Assay: PDE10A assay
RESULT_TYPE: IC50 (nM)
One number for each entry, in nM.

For orientation, consider the following solved cases.
- COMPOUND: "O=C(N[C@@H](CO)Cc1ccccc1)c1nc(C2CC2)cnc1Nc1cncnc1 [Roche-Dataset for PDE10A, Compound 641]"
  IC50 (nM): 1430
- COMPOUND: "COCCN(C)C(=O)c1cnn(C)c1C(=O)Nc1cc2nc(-c3ccccc3)nn2cn1 [Roche-Dataset for PDE10A, Compound 304]"
  IC50 (nM): 0.79
- COMPOUND: "Cc1ncc(O)c2nc(CCc3nc(N4CCCC4)nn3C)nn12 [Roche-Dataset for PDE10A, Compound 705]"
  IC50 (nM): 140
- COMPOUND: "CC(C)n1nc(NC(=O)c2nc(C3CC3)ccc2Nc2cncnc2)cc1C(=O)N(C)C [Roche-Dataset for PDE10A, Compound 1013]"
  IC50 (nM): 793
- COMPOUND: "CN(C)C(=O)Cc1csc(NC(=O)c2nc(C3CC3)cnc2Nc2cncnc2)n1 [Roche-Dataset for PDE10A, Compound 775]"
  IC50 (nM): 13
- COMPOUND: "CNC(=O)c1cc2[nH]c(-c3ccccc3)nc2cc1NC(=O)c1cc[nH]n1 [Roche-Dataset for PDE10A, Compound 619]"
  IC50 (nM): 390
- COMPOUND: "CNC(=O)c1cc(Cl)c(C)n2nc(CCc3nc(N4CCCC4)nn3C)nc12 [Roche-Dataset for PDE10A, Compound 273]"
  IC50 (nM): 6160
- COMPOUND: "O=C(Nc1cc(F)c(F)cc1C(=O)N1CCC1)c1nc(C2CC2)cnc1Nc1cncnc1"
  IC50 (nM): 28
- COMPOUND: "Cc1ncc(C)n2nc(/C=C/c3nc(N4CC[C@H](C)C4)nn3C)nc12 [Roche-Dataset for PDE10A, Compound 566]"
  IC50 (nM): 45
- COMPOUND: "Cn1ncc(C(=O)NCc2nc3ccccc3[nH]2)c1C(=O)Nc1ccn2cc(-c3ccccc3)nc2n1 [Roche-Dataset for PDE10A, Compound 1153]"
  IC50 (nM): 1520

Record IC50 per entry; entries follow.
1. O=C(Nc1ccn(CCF)n1)c1nc(C2CC2)ccc1Nc1cncnc1 [Roche-Dataset for PDE10A, Compound 698]
2. CCOC(=O)c1cnn(C)c1C(=O)Nc1ccn2nc(-c3cccnc3F)nc2c1 [Roche-Dataset for PDE10A, Compound 264]
3. Cc1cc(NC(=O)c2ccc3cc(-c4ccccc4)nn3c2)on1 [Roche-Dataset for PDE10A, Compound 898]
4. CCCNC(=O)c1cc(NC(=O)c2c(C(=O)N3CCC3)cnn2C)nn1C [Roche-Dataset for PDE10A, Compound 871]
5. O=C(N[C@@H]1C[C@@H](CO)N(c2ccc(Cl)cn2)C1)c1nc(C2CC2)ccc1Nc1cncnc1 [Roche-Dataset for PDE10A, Compound 118]
6. CN(C)c1nc(OCc2cc3ccccn3n2)nc2ccc(Cl)cc12 [Roche-Dataset for PDE10A, Compound 586]

Data returned:
1: 9.84; 2: 183; 3: 3350; 4: 10000; 5: 2.35; 6: 423

---

Target: cAMP and cAMP-inhibited cGMP 3',5'-cyclic phosphodiesterase 10A (Homo sapiens)
I'd appreciate it if you could supply IC50 values for the items below.
A complete answer gives the number and then names the unit.

Before answering, review these 4 worked examples.
- MOLECULE: "CC(C)(C)CC(C)(C)NC(=O)c1nc(C2CC2)cnc1Nc1cncnc1 [Roche-Dataset for PDE10A, Compound 976]"
  IC50: "826 nM"
- MOLECULE: "Cn1ncc(C(=O)N2CCC2)c1C(=O)Nc1cc[nH]n1 [Roche-Dataset for PDE10A, Compound 1155]"
  IC50: "3130 nM"
- MOLECULE: "COCc1ccc(NC(=O)c2nc(C3CC3)cnc2Nc2cncnc2)c(C(=O)NCC(C)(C)O)n1"
  IC50: "0.48 nM"
- MOLECULE: "O=C(NCCCN1CCCC1=O)c1nc(C2CC2)cnc1Nc1cncnc1 [Roche-Dataset for PDE10A, Compound 795]"
  IC50: "1110 nM"

Now for the molecule whose IC50 we want.
Data request: Need IC50 of O=C(NCCN1CCOCC1=O)c1nc(C2CC2)cnc1Nc1cncnc1 [Roche-Dataset for PDE10A, Compound 728] , thanks.
Data returned: 2560 nM
